Assay: Solubility in Cremophore:EToH:saline solution in normal conditions using Amber vials after 2 hrs by HPLC method (reference value: 1 mg/ml at 0 hrs)
Type: physicochemical
property_measured: solubility at 2 h (µg/mL)
Numbers only, in µg/mL.

Quick note, solubility at 2 h for Cl.O=C(/C=C/c1ccc2cccc(O)c2n1)c1ccncc1 landed at 1000
